measurementProtocol: Aqueous solubility, 50 mM NaH2PO4 buffers, reverse-phase HPLC
Assay type: physicochemical
measurementSetup: aqueous buffer, thermodynamic from solid; pH 7.4, 50 mM NaH2PO4 buffer, shaking 60 hours, room temperature; read-out: Aqueous solubility pH 7.4
endpointName: solubility at 60 h (µM)

chemicalString | resultNumber
O=C1CCC2=C1C(c1cccc([N+](=O)[O-])c1)C1=C(CCC1=O)N2 | 164

A. O=C1CCC2=C1C(c1ccc(Cl)c([N+](=O)[O-])c1)C1=C(CCC1=O)N2
B. N#Cc1cccc(C2C3=C(CCC3=O)NC3=C2C(=O)CC3)c1
C. O=C1CCC2=C1C(c1ccc(F)c(Br)c1)C1=C(CCC1=O)N2
# input Arrange items by their solubility at 60 h values in increasing order. Respond with an ordered listing of the labels, as requested.
# output A, C, B
(A: 129 µM, C: 227 µM, B: 1290 µM)

---

measurementProtocol: Aqueous solubility, 50 mM NaH2PO4 buffers, reverse-phase HPLC
Assay type: physicochemical
measurementSetup: aqueous buffer, thermodynamic from solid; pH 6.5, 50 mM NaH2PO4 buffer, shaking 60 hours, room temperature; read-out: Aqueous solubility pH 6.5
endpointName: solubility at 60 h (µM)

Guide cases for solubility at 60 h, answers given:
chemicalString | endpointName | resultNumber
O=C1CCC2=C1C(c1ccc(F)c(Br)c1)C1=C(CCC1=O)N2 | solubility at 60 h | 205
O=C1CCC2=C1C(c1ccc(Cl)c([N+](=O)[O-])c1)C1=C(CCC1=O)N2 | solubility at 60 h | 129

I. O=C1CCC2=C1C(c1cccc([N+](=O)[O-])c1)C1=C(CCC1=O)N2
II. N#Cc1cccc(C2C3=C(CCC3=O)NC3=C2C(=O)CC3)c1
# input Problem: Given the entries I and II , determine which has the lower reported solubility at 60 h. Your choice should be expressed through its label.
# output I
(I: 158 µM, II: 1300 µM)
